- target desc: Genome polyprotein (West Nile virus)
- Sequence (P06935 1371-1501 limits assumed): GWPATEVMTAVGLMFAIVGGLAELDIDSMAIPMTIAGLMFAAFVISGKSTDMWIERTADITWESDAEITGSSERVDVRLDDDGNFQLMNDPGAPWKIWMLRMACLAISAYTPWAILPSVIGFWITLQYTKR
- Sequence (P06935 1502-2120 limits assumed): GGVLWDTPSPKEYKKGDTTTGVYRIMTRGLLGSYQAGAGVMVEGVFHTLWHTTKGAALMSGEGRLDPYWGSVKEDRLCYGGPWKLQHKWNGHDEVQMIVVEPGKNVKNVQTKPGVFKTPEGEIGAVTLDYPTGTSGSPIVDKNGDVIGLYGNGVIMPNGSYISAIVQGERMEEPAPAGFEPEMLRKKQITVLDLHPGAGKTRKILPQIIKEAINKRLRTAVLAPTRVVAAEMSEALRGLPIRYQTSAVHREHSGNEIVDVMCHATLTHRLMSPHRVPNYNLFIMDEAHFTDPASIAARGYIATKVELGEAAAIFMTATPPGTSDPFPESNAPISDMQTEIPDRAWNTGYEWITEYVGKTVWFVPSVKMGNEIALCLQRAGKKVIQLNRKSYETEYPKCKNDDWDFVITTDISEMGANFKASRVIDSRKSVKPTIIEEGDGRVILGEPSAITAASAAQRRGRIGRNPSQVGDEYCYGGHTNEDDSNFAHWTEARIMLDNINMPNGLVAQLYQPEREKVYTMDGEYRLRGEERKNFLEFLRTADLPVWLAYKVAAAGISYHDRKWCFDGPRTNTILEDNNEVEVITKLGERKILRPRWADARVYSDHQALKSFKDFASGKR
- assay remarks: Inhibition of West Nile virus NS2B-NS3 protease expressed in Escherichia coli BL21 lambda (DE3) cells using Abz-Gly-Leu-Lys-Arg-Gly-Gly-3-(NO2)Tyr as substrate preincubated for 15 mins followed by substrate addition measured for 15 mins by fluorimetric analysis
Class definitions on IC50: low-valued: < 6 µM; mid-valued: ≥ 6 µM and < 10 µM; high-valued: ≥ 10 µM

CCCCCCC(=O)N[C@H](C(=O)NCc1ccc(NC(=N)N)cc1)c1ccc(OCc2ccccc2)cc1.O=C(O)C(F)(F)F high-valued

Query block: Please classify: CCCCCC(=O)N[C@@H](C(=O)NCc1ccc(NC(=N)N)cc1)c1ccc(OCc2ccc(Cl)c(Cl)c2)cc1.O=C(O)C(F)(F)F
Result block: mid-valued

Query block: Please classify: N=C(N)Nc1ccc(CNC(=O)[C@@H](NC(=O)c2ccc(Oc3ccccc3)cc2)c2ccc(OCc3ccccc3)cc2)cc1.O=C(O)C(F)(F)F
Result block: mid-valued

Query block: Please classify: COc1cccc(COc2ccc(C(=O)N[C@H](C(=O)NCc3ccc(NC(=N)N)cc3)c3ccc(OCc4ccccc4)cc3)cc2)c1.O=C(O)C(F)(F)F
Result block: mid-valued

Query block: Please classify: CCCCCC(=O)N[C@H](C(=O)NCc1ccc(NC(=N)N)nc1)c1ccc(OCc2ccccc2)cc1.O=C(O)C(F)(F)F
Result block: high-valued

Query block: Please classify: N=C(N)Nc1ccc(CNC(=O)[C@@H](NC(=O)c2ccc(OCc3ccc(Cl)cc3)cc2)c2ccc(OCc3ccccc3)cc2)cc1.O=C(O)C(F)(F)F
Result block: low-valued

Query block: Please classify: N=C(N)Nc1ccc(CNC(=O)[C@@H](NC(=O)c2ccccc2-c2ccccc2)c2ccc(OCc3ccccc3)cc2)cc1.O=C(O)C(F)(F)F
Result block: high-valued

Query block: Please classify: N=C(N)Nc1ccc(CNC(=O)[C@@H](NC(=O)CC2CCCCC2)c2ccc(OCc3ccccc3)cc2)cc1.O=C(O)C(F)(F)F
Result block: high-valued

Query block: Please classify: CCCCCC(=O)N[C@H](C(=O)NCc1cccc(CN)c1)c1ccc(OCc2ccccc2)cc1
Result block: high-valued

Query block: Please classify: CCCCCC(=O)N[C@H](C(=O)NCc1ccc(CNC(=N)N)cc1)c1ccc(OCc2ccccc2)cc1.O=C(O)C(F)(F)F
Result block: high-valued

Query block: Please classify: N=C(N)Nc1ccc(CNC(=O)[C@@H](NC(=O)c2ccc(OC3CCCCC3)cc2)c2ccc(OCc3ccccc3)cc2)cc1.O=C(O)C(F)(F)F
Result block: mid-valued

Query block: Please classify: N=C(N)NCc1ccc(CNC(=O)[C@H](NC(=O)c2ccc(Oc3ccccc3)cc2)c2ccc(OCc3ccc(Cl)c(Cl)c3)cc2)cc1.O=C(O)C(F)(F)F
Result block: low-valued

Query block: Please classify: N=C(N)Nc1ccc(CNC(=O)[C@@H](NC(=O)c2ccc(-c3ccccc3)cc2)c2ccc(OCc3ccccc3)cc2)cc1.O=C(O)C(F)(F)F
Result block: mid-valued

Query block: Please classify: N=C(N)Nc1ccc(CNC(=O)[C@@H](NC(=O)Cc2ccc(-c3ccccc3)cc2)c2ccc(OCc3c(Cl)cccc3Cl)cc2)cc1.O=C(O)C(F)(F)F
Result block: low-valued
